- testTarget: T1, recombinant human LAG3 expressed with a C-terminal myc-myc-hexahistidine tag (human, UniProt P18627 29-450)
- T1 construct: also called hLAG3-mmh; hLAG3.mmh
- T1 sequence (P18627 other isoform, or with tags, fused parts or gaps limits assumed): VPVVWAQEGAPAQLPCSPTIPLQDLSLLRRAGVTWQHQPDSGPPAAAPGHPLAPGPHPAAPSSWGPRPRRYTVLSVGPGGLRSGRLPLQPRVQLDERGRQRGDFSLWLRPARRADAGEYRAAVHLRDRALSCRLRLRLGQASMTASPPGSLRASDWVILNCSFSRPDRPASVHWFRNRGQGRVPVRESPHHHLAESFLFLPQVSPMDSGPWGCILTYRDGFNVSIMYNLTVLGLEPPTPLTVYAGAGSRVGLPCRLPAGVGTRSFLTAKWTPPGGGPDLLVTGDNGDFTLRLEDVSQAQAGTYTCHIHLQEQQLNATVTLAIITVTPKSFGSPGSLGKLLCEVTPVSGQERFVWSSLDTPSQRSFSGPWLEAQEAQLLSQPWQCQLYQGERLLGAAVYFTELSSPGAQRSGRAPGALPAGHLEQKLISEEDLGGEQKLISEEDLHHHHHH
- testMethodNotes: SPR, mAb captured, 25 C
Please note: true (1) applies when koff is 0.0004 s⁻¹ or greater, and false (0) applies otherwise.

>  <binder>
H4sH14813N (antibody, human IgG4 S228P, kappa, V domains shown, H4sH = modified human IgG4 Fc) VH: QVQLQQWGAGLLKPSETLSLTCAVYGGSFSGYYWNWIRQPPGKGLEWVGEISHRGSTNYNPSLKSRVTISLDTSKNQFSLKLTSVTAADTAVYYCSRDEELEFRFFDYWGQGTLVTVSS VL: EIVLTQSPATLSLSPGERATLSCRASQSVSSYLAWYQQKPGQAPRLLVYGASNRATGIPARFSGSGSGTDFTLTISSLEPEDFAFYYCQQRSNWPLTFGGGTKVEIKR

>  <categoryLabel>
false (0)

$$$$
>  <binder>
H4sH15479P (antibody, V domains shown) VH: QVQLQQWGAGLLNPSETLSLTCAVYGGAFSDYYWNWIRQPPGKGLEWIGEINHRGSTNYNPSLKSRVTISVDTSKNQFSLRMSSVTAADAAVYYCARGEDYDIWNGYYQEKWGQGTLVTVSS VL: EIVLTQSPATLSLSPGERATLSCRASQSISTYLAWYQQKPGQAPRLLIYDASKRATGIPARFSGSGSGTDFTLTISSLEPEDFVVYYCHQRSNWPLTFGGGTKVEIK

>  <categoryLabel>
false (0)

$$$$
>  <binder>
H4H15483P (antibody, human IgG4, V domains shown, H4H = human IgG4 Fc with S108P hinge mutation) VH: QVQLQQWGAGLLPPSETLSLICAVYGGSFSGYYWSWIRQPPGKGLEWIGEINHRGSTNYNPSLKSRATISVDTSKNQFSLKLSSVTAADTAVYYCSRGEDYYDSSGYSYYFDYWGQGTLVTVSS VL: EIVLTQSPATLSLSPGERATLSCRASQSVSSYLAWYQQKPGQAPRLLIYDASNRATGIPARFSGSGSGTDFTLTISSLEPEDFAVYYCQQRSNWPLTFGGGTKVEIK

>  <categoryLabel>
false (0)

$$$$
>  <binder>
H4H15479P (antibody, human IgG4, V domains shown) VH: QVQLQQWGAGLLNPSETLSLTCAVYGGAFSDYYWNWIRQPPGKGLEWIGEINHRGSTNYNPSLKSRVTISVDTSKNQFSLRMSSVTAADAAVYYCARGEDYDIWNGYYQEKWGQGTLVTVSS VL: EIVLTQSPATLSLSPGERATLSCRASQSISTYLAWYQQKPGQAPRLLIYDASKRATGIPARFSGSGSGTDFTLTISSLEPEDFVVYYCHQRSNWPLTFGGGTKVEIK

>  <categoryLabel>
false (0)

$$$$

[in] Has H4H17823P (antibody, human IgG4, V domains shown, H4H = human IgG4 Fc with S108P hinge mutation) VH: EVQLLESGGGLVQPGGSLRLSCAASGFTFRSYAMSWVRQAPGKGLEWVSVISGGGGRTYYTDSVKGRFTISRDNSKSMLYLQMNSLRAEDTAIYYCAKERVTGIDHYYYGVDVWGQGTTVTVSS VL: DIQMTQSPSSLSASVGDRVTITCRASQSISSYLNWYQQKPGKAPKLLIYATSSLQSGVPSRFSGSASGTDFTLAISSLQPEDFATYYCQQSYTTPLTFGGGTKVEIK a recorded koff greater than or equal to 0.0004 s⁻¹?
[out] true (1)

[in] Has H4H17819P (antibody, human IgG4, V domains shown, H4H = human IgG4 Fc with S108P hinge mutation) VH: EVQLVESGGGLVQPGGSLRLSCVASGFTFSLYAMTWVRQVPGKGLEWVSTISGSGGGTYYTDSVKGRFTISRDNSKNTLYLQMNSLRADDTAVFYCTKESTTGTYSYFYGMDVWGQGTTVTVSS VL: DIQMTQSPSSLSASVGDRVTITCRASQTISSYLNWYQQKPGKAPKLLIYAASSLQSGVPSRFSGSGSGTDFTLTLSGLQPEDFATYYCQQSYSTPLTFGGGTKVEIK a recorded koff greater than or equal to 0.0004 s⁻¹?
[out] true (1)

[in] Has H4H14813N (antibody, human IgG4, V domains shown, H4H = human IgG4 Fc with S108P hinge mutation) VH: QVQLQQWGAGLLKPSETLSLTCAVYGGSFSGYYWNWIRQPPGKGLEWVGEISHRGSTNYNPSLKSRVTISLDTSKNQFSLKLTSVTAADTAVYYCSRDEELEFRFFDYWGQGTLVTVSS VL: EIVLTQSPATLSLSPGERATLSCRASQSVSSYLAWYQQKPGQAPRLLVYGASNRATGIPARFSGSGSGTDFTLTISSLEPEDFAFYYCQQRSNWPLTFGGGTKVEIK a recorded koff greater than or equal to 0.0004 s⁻¹?
[out] false (0)
